Cited source for all entries: patent US8278304B2

Target: PHD2 (Homo sapiens, UniProt Q9GZT9)
Construct: FLAG-tagged full length PHD2 expressed in and purified from baculovirus-infected Sf9 cells; FLAG; made in house; host or cells: baculovirus-infected Sf9 cells
Sequence (Q9GZT9 whole entry): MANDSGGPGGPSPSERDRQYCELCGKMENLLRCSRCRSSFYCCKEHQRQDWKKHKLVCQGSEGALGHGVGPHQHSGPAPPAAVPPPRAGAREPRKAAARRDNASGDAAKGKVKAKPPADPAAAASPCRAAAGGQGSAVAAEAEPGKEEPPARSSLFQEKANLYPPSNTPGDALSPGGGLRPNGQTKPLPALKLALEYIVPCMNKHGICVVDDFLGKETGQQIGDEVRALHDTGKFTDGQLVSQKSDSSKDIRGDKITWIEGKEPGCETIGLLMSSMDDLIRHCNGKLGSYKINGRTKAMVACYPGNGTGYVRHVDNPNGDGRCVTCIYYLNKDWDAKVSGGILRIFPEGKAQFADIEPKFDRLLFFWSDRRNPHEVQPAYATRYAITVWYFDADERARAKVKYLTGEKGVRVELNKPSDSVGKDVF
Test: PHD2 / HIF-1α peptide hydroxylation assay, time resolved fluorescence (VHL complex detection)
Type: biochemical
Conditions: FLAG-tagged full length PHD2; 0.2 μM 2-oxoglutarate, 0.5 μM HIF-1α peptide; read-out: PHD2 Activity (PHD2 binding activity expressed as IC50 (nM))
Here, each record is paired with measured IC50 data.

Which measured IC50 value corresponds to C[C@H](NC(=O)c1cnc(-c2cccnn2)nc1O)c1ccc2c(c1)OCCO2 [Example 140] ?
≤ 10 nM

I have this compound here, COc1ccc(C(NC(=O)c2cnc(-c3ccccn3)nc2O)c2ccc(OC)cc2)cc1 [Example 14] , and I need its recorded IC50.
≤ 10 nM

Query (compound): COc1ccc(C(NC(=O)c2cnc(-c3cccnn3)nc2O)c2ccc(OC)nc2)cc1 (single isomer, unassigned) [Example 191] ; field requested: IC50
≤ 10 nM

Can you look up the measured IC50 of COc1ccc(C(NC(=O)c2cnc(-n3cccn3)nc2O)c2cnccn2)cc1 (centres unmarked) [Example 166] for me?
≤ 10 nM

So what does the record say about IC50 for Cc1nc(-c2ncc(C(=O)NCc3ccc(Cl)cc3Cl)c(O)n2)cs1 [Example 37] ?
10 to 100 nM

Any idea what its IC50 is? The compound is COc1ccc([C@H](C)NC(=O)c2cnc(-n3cc(C)cn3)nc2O)cc1 [Example 134]
≤ 10 nM

Please look up its IC50: O=C(NCc1ccc(C(F)(F)F)cc1)c1cnc(-c2ncccn2)nc1O [Example 23]
100 to 1000 nM

Please give the measured IC50 for this compound: CC[C@@H](NC(=O)c1cnc(-c2csc(C)n2)nc1O)c1ccccc1 [Example 36]
10 to 100 nM

====

Each entry below carries its reported IC50.
Target: PHD2 (Homo sapiens, UniProt Q9GZT9)
Construct: FLAG-tagged full length PHD2 expressed in and purified from baculovirus-infected Sf9 cells; FLAG; made in house; host or cells: baculovirus-infected Sf9 cells
Test: PHD2 / HIF-1α peptide hydroxylation assay, time resolved fluorescence (VHL complex detection)
Assay type: biochemical
Details: FLAG-tagged full length PHD2; 0.2 μM 2-oxoglutarate, 0.5 μM HIF-1α peptide; read-out: PHD2 Activity (PHD2 binding activity expressed as IC50 (nM))

>  <Compound>
O=C(NCc1ccc(-c2ccccc2)cc1)c1cnc(-c2cccnn2)nc1O

>  <Assayed target>
PHD2 (Homo sapiens, UniProt Q9GZT9)

>  <Result>
≤ 10 nM

$$$$

Return reported IC50; argument: O=C(O)CNC(=O)c1cnc(-n2cccn2)nc1O
1000 to 10000 nM

I have this compound here, O=C(NC(Cc1ccccc1)c1ccccc1)c1cnc(-n2cccn2)nc1O (centres unmarked) , and I need its recorded IC50.
≤ 10 nM

May I ask what IC50 has been recorded for Cc1nc(-c2ncc(C(=O)Nc3ccc(F)cc3Cl)c(O)n2)cs1 ?
100 to 1000 nM

Any idea what its IC50 is? The compound is CC[C@H](NC(=O)c1cnc(-n2cc(C)cn2)nc1O)c1ccccc1
≤ 10 nM

====

Target: PHD2 (Homo sapiens, UniProt Q9GZT9)
Construct: FLAG-tagged full length PHD2 expressed in and purified from baculovirus-infected Sf9 cells; FLAG; made in house; host or cells: baculovirus-infected Sf9 cells
Experiment: PHD2 / HIF-1α peptide hydroxylation assay, time resolved fluorescence (VHL complex detection)
Type: biochemical
Settings: FLAG-tagged full length PHD2; 0.2 μM 2-oxoglutarate, 0.5 μM HIF-1α peptide; read-out: PHD2 Activity (PHD2 binding activity expressed as IC50 (nM))
Quantity measured: IC50

Would you please look over these solved cases?
>  <Molecule>
O=C(O)c1ccc(-c2ncc(C(=O)NCc3ccc(F)cc3)c(O)n2)nc1 [Example 3]

>  <IC50>
10 to 100 nM

$$$$
>  <Molecule>
COCc1ccc(C(NC(=O)c2cnc(-c3cccnn3)nc2O)c2ccc(OC)cc2)cc1 (single isomer, unassigned) [Example 183]

>  <IC50>
≤ 10 nM

$$$$

Item COc1ccc(C(NC(=O)c2cnc(-c3cccnn3)nc2O)c2ccc(OC)nc2)cc1 (stereo not shown) [Example 170] has what recorded IC50?
≤ 10 nM

Suppose we examine the molecule COc1ccc(C(NC(=O)c2cnc(-c3cccnn3)nc2O)c2ccc(C#N)nc2)cc1 (stereo not shown) [Example 112] ; what IC50 value has been reported?
≤ 10 nM

====

Target: PHD2 (Homo sapiens, UniProt Q9GZT9)
Construct: FLAG-tagged full length PHD2 expressed in and purified from baculovirus-infected Sf9 cells; FLAG; made in house; host or cells: baculovirus-infected Sf9 cells
Assay: PHD2 / HIF-1α peptide hydroxylation assay, time resolved fluorescence (VHL complex detection)
Type: biochemical
Conditions: FLAG-tagged full length PHD2; 0.2 μM 2-oxoglutarate, 0.5 μM HIF-1α peptide; read-out: PHD2 Activity (PHD2 binding activity expressed as IC50 (nM))
Quantity measured: IC50

As a guide, the following entries are already answered.
>  <Compound>
O=C(NC1c2ccccc2-c2ccccc21)c1cnc(-n2cccn2)nc1O [Example 102]

>  <Quantity measured>
IC50

>  <Result>
≤ 10 nM

$$$$
>  <Compound>
O=C(NCc1cnc(-c2ccc(F)cc2)cn1)c1cnc(-n2cccn2)nc1O [Example 109]

>  <Quantity measured>
IC50

>  <Result>
10 to 100 nM

$$$$
>  <Compound>
COc1ccc(C(NC(=O)c2cnc(-c3cccnn3)nc2O)c2ccc3cc(OC)ccc3n2)cc1 (centres unmarked) [Example 172]

>  <Quantity measured>
IC50

>  <Result>
≤ 10 nM

$$$$
>  <Compound>
CC(C)(C)C1CCC(NC(=O)c2cnc(-n3cccn3)nc2O)CC1 (centres unmarked) [Example 82]

>  <Quantity measured>
IC50

>  <Result>
10 to 100 nM

$$$$

Reported IC50 for O=C(NC(c1ccccc1)c1ccccc1)c1cnc(-c2ccc[nH]2)nc1O [Example 45] : what is it?
100 to 1000 nM

Entry Cc1nc(-c2ncc(C(=O)NCc3cccc(-c4ccccc4)c3)c(O)n2)cs1 [Example 42] : reported IC50 = ?
10 to 100 nM

Could you tell me which IC50 is on file for COc1ccc(C(NC(=O)c2cnc(-c3cccnn3)nc2O)c2ccc(O)cc2)cc1 (single isomer, unassigned) [Example 157] ?
≤ 10 nM

# query: IC50 of entry N#Cc1ccc(C(NC(=O)c2cnc(-c3cccnn3)nc2O)C2CCCCC2)cc1 (single isomer, unassigned) [Example 162]
100 to 1000 nM

====

Molecular target: PHD2 (Homo sapiens, UniProt Q9GZT9)
Construct: FLAG-tagged full length PHD2 expressed in and purified from baculovirus-infected Sf9 cells; FLAG; made in house; host or cells: baculovirus-infected Sf9 cells
Experiment: PHD2 / HIF-1α peptide hydroxylation assay, time resolved fluorescence (VHL complex detection)
Type: biochemical
Conditions: FLAG-tagged full length PHD2; 0.2 μM 2-oxoglutarate, 0.5 μM HIF-1α peptide; read-out: PHD2 Activity (PHD2 binding activity expressed as IC50 (nM))
Quantity measured: IC50

>  <Compound>
O=C(NCc1ccc(C(F)(F)F)cn1)c1cnc(-n2cccn2)nc1O

>  <Result>
10 to 100 nM

$$$$
>  <Compound>
O=C(NCc1ccc(C(F)(F)F)nc1)c1cnc(-n2cccn2)nc1O

>  <Result>
10 to 100 nM

$$$$
>  <Compound>
O=C(N[C@H](c1ccccc1)[C@H](O)c1ccccc1)c1cnc(-c2cccnn2)nc1O

>  <Result>
≤ 10 nM

$$$$

Query compound follows.
Can you look up the measured IC50 of COc1ccc(C(NC(=O)c2cnc(-c3cccnn3)nc2O)c2ccc3c(c2)CCO3)cc1 (single isomer, unassigned) for me?
≤ 10 nM

====

Target: PHD2 (Homo sapiens, UniProt Q9GZT9)
Construct: FLAG-tagged full length PHD2 expressed in and purified from baculovirus-infected Sf9 cells; FLAG; made in house; host or cells: baculovirus-infected Sf9 cells
Assay: PHD2 / HIF-1α peptide hydroxylation assay, time resolved fluorescence (VHL complex detection)
Assay type: biochemical
Conditions: FLAG-tagged full length PHD2; 0.2 μM 2-oxoglutarate, 0.5 μM HIF-1α peptide; read-out: PHD2 Activity (PHD2 binding activity expressed as IC50 (nM))
Method: To each well of a 96-well plate was added 1 μL of test compound in DMSO and 20 μl of assay buffer (50 mM Tris pH 7.4/0.01% Tween-20/0.1 mg/ml bovine serum albumin/10 μM ferrous sulfate/1 mM sodium ascorbate/20 μg/ml catalase) containing 0.15 μg/ml FLAG-tagged full length PHD2 expressed in and purified from baculovirus-infected Sf9 cells. […]
Quantity measured: IC50

Answered cases to consult:
>  <Compound>
COc1ccc(C(NC(=O)c2cnc(-c3cccnn3)nc2O)c2cccc(C#N)c2)cc1 (single isomer, unassigned) [Example 147]

>  <Quantity measured>
IC50

>  <Result>
≤ 10 nM

$$$$
>  <Compound>
C[C@@H](NC(=O)c1cnc(-n2cccn2)nc1O)C1CCCCC1 [Example 84]

>  <Quantity measured>
IC50

>  <Result>
10 to 100 nM

$$$$
>  <Compound>
O=C(NCc1ccc(-c2ccccc2F)nc1)c1cnc(-n2cccn2)nc1O [Example 106]

>  <Quantity measured>
IC50

>  <Result>
≤ 10 nM

$$$$
>  <Compound>
N#Cc1ccc(CNC(=O)c2cnc(-n3cccn3)nc2O)cn1 [Example 110]

>  <Quantity measured>
IC50

>  <Result>
10 to 100 nM

$$$$
>  <Compound>
O=C(NCc1ccc(-c2ccccc2Cl)cc1)c1cnc(-n2cccn2)nc1O [Example 62]

>  <Quantity measured>
IC50

>  <Result>
≤ 10 nM

$$$$

Quick one: IC50 of CCCC(NC(=O)c1cnc(-n2cccn2)nc1O)c1ccc(-c2ccccc2)cc1 (stereo not drawn) [Example 165] ?
≤ 10 nM
